From: patent US20090285798A1

ASSAY_SYSTEM: SF162 pseudovirus envelope (HIV-1, UniProt P19550 32-847)
ASSAY_NAME: cell-based or functional assay
RECORDED_ENDPOINT: EC50, single-cycle HIV-1 pseudovirus infection of GHOST cells (luciferase) (nM)
A number alone suffices; assume nM.

Q) Consider the binder XNLHFCQLRCKSLGLLGRCAXTXCACV (not fully specified; N-terminal thiopropionic acid (TPA) at position 1; (D)Pro at 21; para-cyclo-pentylethoxyphenylalanine (U2) at 23; C-terminal amide) [CD4M48_U2] and give its measured EC50, single-cycle HIV-1 pseudovirus infection of GHOST cells (luciferase).
A) 1.6

Q) Consider the binder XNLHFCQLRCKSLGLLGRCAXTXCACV (not fully specified; N-terminal thiopropionic acid (TPA) at position 1; (D)Pro at 21; biphenylalanine (Bip) at 23; C-terminal amide) [CD4M47] and give its measured EC50, single-cycle HIV-1 pseudovirus infection of GHOST cells (luciferase).
A) 22

Q) Consider the binder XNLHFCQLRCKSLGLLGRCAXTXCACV (not fully specified; N-terminal thiopropionic acid (TPA) at position 1; (D)Pro at 21; Phe(para-[phenyl-ethoxy]) (U3) at 23; C-terminal amide) [CD4M48_U3] and give its measured EC50, single-cycle HIV-1 pseudovirus infection of GHOST cells (luciferase).
A) 2

Q) Consider the binder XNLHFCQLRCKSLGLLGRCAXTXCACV (not fully specified; N-terminal thiopropionic acid (TPA) at position 1; (D)Pro at 21; para-cyclo-hexylmethoxyphenylalanine (U1) at 23; C-terminal amide) [CD4M48_U1] and give its measured EC50, single-cycle HIV-1 pseudovirus infection of GHOST cells (luciferase).
A) 0.65

Q) Consider the binder XNLHFCQLRCKSLGLLGRCAXTFCACV (not fully specified; N-terminal thiopropionic acid (TPA) at position 1; (D)Pro at 21; C-terminal amide, optimized mini-protein, Phe at 23; unlabelled monomer; also called B4T) [CD4M48] and give its measured EC50, single-cycle HIV-1 pseudovirus infection of GHOST cells (luciferase).
A) 5
